assay: Plasma pharmacokinetics of tosedostat, CHR-79888 and paclitaxel (LC-MS/MS, noncompartmental); conditions: human, plasma, oral, Tmax, cohort 2: CHR-2797 90 mg, paclitaxel 175 mg m^−2; day 22, tosedostat in combination with paclitaxel; plasma; mean (±s.e.m.)
MEASURED PROPERTY: Tmax (h)
Just the number please, in h, no unit attached.

Reported Tmax for CC(C)C[C@@H](C(=O)N[C@H](C(=O)OC1CCCC1)c1ccccc1)[C@H](O)C(=O)NO : what is it?
2

---

assay: Plasma pharmacokinetics of tosedostat, CHR-79888 and paclitaxel (LC-MS/MS, noncompartmental); conditions: human, plasma, oral, 130 mg, Tmax, cohort 3: CHR-2797 130 mg, paclitaxel 175 mg m^−2; day 21, tosedostat without paclitaxel; plasma; mean (±s.e.m.)
MEASURED PROPERTY: Tmax (h)
// note: answer is a bare numeric in h

Given the entry CC(C)C[C@@H](C(=O)N[C@H](C(=O)OC1CCCC1)c1ccccc1)[C@H](O)C(=O)NO [tosedostat] , report its measured Tmax.
1.7
